Test: recombinant UMI read abundance after kanamycin selection (control-corrected) (log10(CPM+1)); higher = more efficient recombination; extreme values may be limits of the assay; sequences stand for … in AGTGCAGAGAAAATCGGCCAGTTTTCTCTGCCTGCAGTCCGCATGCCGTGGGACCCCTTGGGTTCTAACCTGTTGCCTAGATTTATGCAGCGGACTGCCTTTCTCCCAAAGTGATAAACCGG…AGGTTGGTTTCACT; site = the 11-nt donor;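 note: IS621 bridge recombinase in Escherichia coli cells against a fixed T5 target plasmid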
For each of the sequences below, state its recombinant UMI read abundance (log10).
Number only, please.

Ask: Reported recombinant UMI read abundance (log10) for CAGCACGCATGGACCGGTTTTCCCGGTAATCCGTATTTGGG (site TAGCACGCTCC) : what is it?
Reply: 0.0838

Ask: Could you share which recombinant UMI read abundance (log10) value was measured for CTGGGCGCATGGACCGGTTTTCCCGGTAATCCGTATTTGTA (site CTGGGCGCTTA) ?
Reply: 1.62

Ask: Fill blank: measured recombinant UMI read abundance (log10) of the sequence CGGGAGTCATGGACCGGTTTTCCCGGTAATCCGTATTTGCT (site CGGGAGTCTTG) is ____.
Reply: 1.47

Ask: Fill in the blank: the reported recombinant UMI read abundance (log10) of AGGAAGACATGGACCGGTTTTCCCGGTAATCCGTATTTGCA (site AGGAAGACTAC) is ____.
Reply: 0.00471

Ask: Which recombinant UMI read abundance (log10) is listed for CGGATTCCATGGACCGGTTTTCCCGGTAATCCGTATTTGTT (site CGGAATCCTAA) ?
Reply: 0.00458

Ask: Given CACGGCCCATGGACCGGTTTTCCCGGTAATCCGTATTTGGT (site CACGGCCCTAA) , state its recorded recombinant UMI read abundance (log10).
Reply: 0.0236

Ask: Data request, read-out recombinant UMI read abundance (log10), for GACTGGCCATGGACCGGTTTTCCCGGTAATCCGTATTTGCA (site GAGTGGCCTTG)
Reply: 0

Ask: # query: recombinant UMI read abundance (log10) of entry CATGGACCATGGACCGGTTTTCCCGGTAATCCGTATTTGGG (site CATGGACCTCC)
Reply: 0.0171

Ask: Return reported recombinant UMI read abundance (log10); argument: CAATTCCCATGGACCGGTTTTCCCGGTAATCCGTATTTGTT (site CAATTCCCTAC)
Reply: 0.942

Ask: # lookup: recombinant UMI read abundance (log10) of CAAACAGCATGGACCGGTTTTCCCGGTAATCCGTATTTGCT (site CAAGCAGCTAG)
Reply: 0.00437

Ask: Quick check: recombinant UMI read abundance (log10) of ATAAGGCCATGGACCGGTTTTCCCGGTAATCCGTATTTGAC (site CTAAGGCCTGT) ?
Reply: 0

Ask: Look up recombinant UMI read abundance (log10): CACTCAGCATGGACCGGTTTTCCCGGTAATCCGTATTTGCC (site CACTCAGCTGG)
Reply: 2.5

Ask: Which recombinant UMI read abundance (log10) is reported for this sequence? ACATCTTCATGGACCGGTTTTCCCGGTAATCCGTATTTGTG (site ACATCTCCTCA)
Reply: 0.0151

Ask: Given CTAGTAGCATGGACCGGTTTTCCCGGTAATCCGTATTTGAC (site CTAGTACCTGT) , state its recorded recombinant UMI read abundance (log10).
Reply: 0

Ask: So what's the measured recombinant UMI read abundance (log10) for this one? TTCTTCGCATGGACCGGTTTTCCCGGTAATCCGTATTTGCG (site TTCTTCGCTCG)
Reply: 0.00387

Ask: Name the recorded recombinant UMI read abundance (log10) for GCCACGTCATGGACCGGTTTTCCCGGTAATCCGTATTTGTA (site GCCACGTCTTA) .
Reply: 2.47

Ask: Which recombinant UMI read abundance (log10) reading was recorded for the sequence CGATCGACATGGACCGGTTTTCCCGGTAATCCGTATTTGTT (site CGATCGACTGA) ?
Reply: 0.668

Ask: Please look up its recombinant UMI read abundance (log10): GTGTGCACATGGACCGGTTTTCCCGGTAATCCGTATTTGTA (site GTTTGCACTTA)
Reply: 0.00854
